Assay: chemical genetic growth profiling, strain panel (AID 1159580);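 also: tested at 20 µM; growth read once vehicle control cultures reached saturation at 30 °C; 1 = growth at the plate median or of vehicle wells; lower values mean less growth of the strain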
Conditions: S. cerevisiae deletion strains, growth OD, locus YML120C, strain ndi1, stronger effect = lower value
In all, about 5,500 compounds went through this assay and about 2,000 (36%) were called active. Roughly 18% stayed inconclusive and do not appear here. The list shows a part of the results.
Checkbox rule: normalized growth lower than 1 = criterion met; normalized growth not lower than 1 = criterion not met.

Look over these answered cases.
Data request: Quick check: normalized growth of CC1(C)S[C@@H]2[C@H](NC(=O)[C@H](NC(=O)N3CCNC3=O)c3ccccc3)C(=O)N2C1C(=O)O (stereo partly drawn) under 1?
Data returned: criterion met

Data request: Okay, and CCCCCC(C)N (stereo not drawn) ?
Data returned: criterion not met

Data request: Input Cc1cc(=O)c2c(O)cc(O)c(C)c2o1
Data returned: criterion met

Data request: Try this compound too: S=C=NCc1ccccc1
Data returned: criterion met

Data request: Now the compound c1ccc(CN(CC2=NCCN2)c2ccccc2)cc1
Data returned: criterion not met

Now look at this entry.
Data request: Record NCC1CCCCC1CC(=O)O (stereo not drawn) : is its normalized growth strictly below 1?
Data returned: criterion not met

----------
Experiment: chemical genetic growth profiling, strain panel (AID 1159580);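 also: tested at 20 µM; growth read once vehicle control cultures reached saturation at 30 °C; 1 = growth at the plate median or of vehicle wells; lower values mean less growth of the strain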
Conditions: S. cerevisiae deletion strains, growth OD, locus YMR205C, strain PFK2 (second series)
Hit rate of the full screen: of about 5,500 compounds, about 2,000 (36%) were called active. Another 18% or so got no clear call; they are omitted. Rule as the data show it: active = normalized growth mostly below about 0.91 (no sharp cut-off); inconclusive = no clear call, values can overlap the other calls; inactive = mostly above about 0.92. Some of the results follow.
Hi! Could you answer with just one of these? 1 = active, 0 = inactive

Answered examples (4):
Data request: What is the recorded call for this molecule in the test? O=C(Nc1cc(Cl)cc(Cl)c1)Nc1cc(-c2cccs2)[nH]n1
Data returned: 0

Data request: Next molecule: CC1=CC(=O)C(CCOCCC2=CC(=O)C(C)=CC2=O)=CC1=O
Data returned: 0

Data request: Try this molecule next: Cc1c(C(=O)N2CCCCC2)cc(-c2ccccc2)n1-c1ccccc1
Data returned: 0

Data request: Try this molecule too: N#C/C(=C\c1ccccc1Sc1ccc(Cl)cc1)S(=O)(=O)c1ccccn1
Data returned: 0

Continuing:
Data request: Name the outcome recorded for O=C(Nc1cc(Cl)cc(Cl)c1)Nc1cc(-c2ccco2)[nH]n1 in the assay.
Data returned: 1

Data request: Same read-out for Cc1oc2c(F)c(F)c(F)c(F)c2c1C(=O)ONC(N)c1ccc(OS(=O)(=O)N(C)C)cc1 (stereo unspecified) ?
Data returned: 0

Data request: Lookup C/C(=N/NC(N)=S)c1ccc(Oc2c(Cl)cncc2Cl)cc1
Data returned: 0

Data request: Same for O=C(CCN1CCCCC1)c1ccc(-c2ccccc2)cc1
Data returned: 0

Data request: // repeat for S=C(Nc1cc(-c2cccs2)[nH]n1)Nc1ccccc1Cl and report
Data returned: 0

Data request: Same question, N#C/C(=N/Nc1ccccc1Cl)S(=O)(=O)c1ccc(Cl)cc1 this time
Data returned: 0

Data request: How about COc1ccc(NC(=O)O/N=C(/N)c2ccc(Oc3c(Cl)cncc3Cl)cc2)cc1 ?
Data returned: 0

----------
Assay: chemical genetic growth profiling, strain panel (AID 1159580);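 also: tested at 20 µM; growth read once vehicle control cultures reached saturation at 30 °C; 1 = growth at the plate median or of vehicle wells; lower values mean less growth of the strain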
Settings: S. cerevisiae deletion strains, growth OD, locus YPL051W, strain arl3, stronger effect = lower value
The whole screen tested about 5,500 compounds, of which about 2,000 (36%) were called active. Not shown: some 18% with an inconclusive outcome. The list shows a part of the results.
normalized growth for assorted compounds
// no unit, no text: just the number

Record excerpt, results attached:
Data request: Quick check: normalized growth of C=CCc1ccc2c(c1)OCO2 ?
Data returned: 1

Data request: For Cc1c(N(C)C)c(=O)n(-c2ccccc2)n1C then?
Data returned: 0.992

Data request: Next entry: CCC1(c2ccc(N)cc2)CCC(=O)NC1=O (configuration not stated)
Data returned: 0.962

Data request: Same question for CC(C)=CCc1c(O)cc2oc(C)cc(=O)c2c1O please.
Data returned: 0.952

Data request: Same again, this time with c1ccc(CC2=NCCN2)cc1
Data returned: 0.989

***
Data request: Please give the measured normalized growth for this compound: NC(N)=NOCC[C@H](N)C(=O)O
Data returned: 1.01

Data request: Same question for CCC1(c2ccccc2)C(=O)NCNC1=O please.
Data returned: 1.01

Just for reference, PubChem BioAssay AID1159580 is where these values come from.
